Assay: Ratio of AUC (0 to 1.5 hrs) in C57BL/6J mouse pancreas to plasma at 5 mg/kg, po administered as single dose by LC/MS/MS analysis
Format: ADME, organism-based
Settings: pancreas and plasma, read-out: Ratio AUC

{"columns": ["smilesRecord", "Kp"],
 "data": [
  ["CS(=O)(=O)c1ccc([C@@H](C[C@H]2CCC(=O)C2)C(=O)Nc2cnccn2)cc1Cl", 1.4]
]}

---

Assay: Ratio of AUC (0 to 1.5 hrs) in C57BL/6J mouse liver to plasma at 100 mg/kg, po administered as single dose by LC/MS/MS analysis
Assay type: ADME, organism-based
Conditions: liver and plasma, read-out: Ratio AUC

{"columns": ["smilesRecord", "Kp"],
 "data": [
  ["CCN(CC(=O)O)CC(=O)N1CCC[C@H]1c1cc(C(=O)Nc2ncc(F)s2)c(C)s1", 1.7]
]}
